ASSAY_METHOD_TEXT: NCI Yeast Anticancer Drug Screen. Data for the sgs1 mgt1 strain (AID 161)
CONDITION_PARAMETERS: S. cerevisiae sgs1 mgt1 strain, at 5.0 µM (retest, dose inferred, filed as 0.5), active compounds read high
This is part of a sample that, as a whole, favours compounds with a hit. Of some 79,000 tested, about 15% had one in any assay.
Classification field: T = growth inhibition at or over 20%; F = growth inhibition under 20%.

Reference set, count: 2
MOLECULE	ANSWER_LABEL
COc1ccc(C(=O)NCCN2CCN3Cc4[nH]c5ccccc5c4CC3C2)cc1 (stereo not drawn)	F
CC12CC(O)C3C(CCC4CCCCC43C)C1CC/C2=N/O (stereo not drawn)	T

(Q) Given Cc1ccc(N2C(c3ccccc3)=CC(=C3C=CC(=O)C=C3)C=C2c2ccccc2)cc1 , state whether its growth inhibition is at least 20%.
(A) F

(Q) Is the recorded value of growth inhibition equal to or greater than 20% for this molecule? CC(C)CCCC(C)C1CCC2C3CCC4=CC(O)CCC4(C)C3CCC12C (stereo not drawn)
(A) F

(Q) Item Cc1c(N=Nc2ccccc2Cl)c(-c2ccccc2)nn1C(=S)S with growth inhibition of 20% or above?
(A) F
